biological target: human ether-à-go-go-related gene (hERG) potassium channel (human); experiment: primary screen, population patch clamp on CHO cells stably expressing hERG; higher = less effect of the substance;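 also: peak tail current of the secondary pulse compared with the same well before compound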
Sequence (Q12809 whole entry, looked up): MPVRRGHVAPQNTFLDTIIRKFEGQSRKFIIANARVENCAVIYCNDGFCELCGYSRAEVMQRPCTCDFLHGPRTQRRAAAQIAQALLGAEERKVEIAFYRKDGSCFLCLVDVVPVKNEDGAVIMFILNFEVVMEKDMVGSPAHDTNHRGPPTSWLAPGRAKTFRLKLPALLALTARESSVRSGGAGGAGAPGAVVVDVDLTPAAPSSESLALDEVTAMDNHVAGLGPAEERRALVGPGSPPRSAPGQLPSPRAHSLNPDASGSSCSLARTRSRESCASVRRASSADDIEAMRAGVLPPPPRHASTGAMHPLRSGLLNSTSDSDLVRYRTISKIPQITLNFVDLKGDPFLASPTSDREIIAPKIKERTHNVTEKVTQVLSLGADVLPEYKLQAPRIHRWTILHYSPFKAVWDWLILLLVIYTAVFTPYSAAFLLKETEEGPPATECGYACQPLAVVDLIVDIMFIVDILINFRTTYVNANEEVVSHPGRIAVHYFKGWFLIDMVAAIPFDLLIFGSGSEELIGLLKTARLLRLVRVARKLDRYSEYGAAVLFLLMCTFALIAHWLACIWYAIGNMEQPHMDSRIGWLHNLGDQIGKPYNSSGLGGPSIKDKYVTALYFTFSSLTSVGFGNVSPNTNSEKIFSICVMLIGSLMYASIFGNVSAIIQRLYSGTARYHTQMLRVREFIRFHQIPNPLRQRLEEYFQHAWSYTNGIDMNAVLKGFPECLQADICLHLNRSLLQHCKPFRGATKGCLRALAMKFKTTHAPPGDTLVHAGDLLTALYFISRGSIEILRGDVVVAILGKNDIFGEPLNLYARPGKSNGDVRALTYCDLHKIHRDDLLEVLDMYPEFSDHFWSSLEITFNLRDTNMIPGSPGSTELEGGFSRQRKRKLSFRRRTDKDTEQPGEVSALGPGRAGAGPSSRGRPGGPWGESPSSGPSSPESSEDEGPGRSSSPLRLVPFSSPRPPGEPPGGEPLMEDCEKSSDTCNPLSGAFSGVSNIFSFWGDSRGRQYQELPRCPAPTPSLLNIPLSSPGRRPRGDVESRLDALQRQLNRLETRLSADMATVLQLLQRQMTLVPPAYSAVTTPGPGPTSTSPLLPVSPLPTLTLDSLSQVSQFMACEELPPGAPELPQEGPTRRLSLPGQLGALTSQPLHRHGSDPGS
Screen size: about 310,000 compounds; about 14,000 (4.5%) showed an effect of 50% or more. The effect is printed as a negative number. The sample holds strong results, similar compounds and a random draw of the others, so the mix is not that of the screen.
Lab note: anything with hERG current change (%, negative = inhibition) at 10uM at or over -30% counts as satisfied; the rest go in not satisfied.

Here are 3 compounds together with their reported answers.
CCn1c(SCc2nnc(-c3ccccc3)o2)nnc1-c1ccc(S(=O)(=O)N2CCCC2)cc1 ... not satisfied
O=C(CCN1CCN(C(c2ccccc2)c2ccccc2)CC1)N/N=C/c1ccc(O)cc1 ... not satisfied
COc1ccc([C@@H]2CC(=O)c3c(O)cc(O)cc3O2)cc1O ... satisfied

Decide: hERG current change (%, negative = inhibition) at 10uM of O=C(CN1CCN(Cc2ccc3c(c2)OCO3)CC1)Nc1ccc(N2CCOCC2)cc1 >= -30%?
satisfied

Check the entry Cc1cc(-c2nc(C)c(-c3nnc(SCC(=O)Nc4ccc(Cl)cc4)n3C)s2)no1 : does hERG current change (%, negative = inhibition) at 10uM equal or exceed -30%?
satisfied
